target: Apoptosis regulator Bcl-2 (Homo sapiens, UniProt P10415); assay: Displacement of FAM-Bid BH3 peptide from human recombinant Bcl2 by FP-based binding assay
Sequence (P10415 whole entry): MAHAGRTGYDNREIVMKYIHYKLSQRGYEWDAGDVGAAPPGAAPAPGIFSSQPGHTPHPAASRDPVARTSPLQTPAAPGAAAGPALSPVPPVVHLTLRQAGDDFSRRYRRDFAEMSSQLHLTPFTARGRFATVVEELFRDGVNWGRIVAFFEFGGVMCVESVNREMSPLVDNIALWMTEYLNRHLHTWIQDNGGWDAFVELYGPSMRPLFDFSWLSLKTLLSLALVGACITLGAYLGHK
property-measured: Ki (nM)

I. CC(C)c1cc(C(=O)Nc2ccccc2)c(O)c(O)c1O
II. CC(C)c1cc(C(=O)N2CCc3ccccc3C2)c(O)c(O)c1O
III. CC(C)c1cc(C(=O)N2CCc3ccc(S(=O)(=O)NCCc4ccccc4)cc3C2)c(O)c(O)c1O
IV. CN(CCCc1ccccc1)S(=O)(=O)c1cc(C(=O)N2CCc3ccc(S(=O)(=O)NCCc4ccccc4)cc3C2)c(O)c(O)c1O
Sort ascending by Ki: all records listed above. To answer, write out the labels according to the requested order.
IV, III, II, I

Provenance of the data: ChEMBL document CHEMBL1144472
